Provide the reported AIRE transcriptional activation functional score of each item.
B1: library; numbered along this chain (parent)
chain: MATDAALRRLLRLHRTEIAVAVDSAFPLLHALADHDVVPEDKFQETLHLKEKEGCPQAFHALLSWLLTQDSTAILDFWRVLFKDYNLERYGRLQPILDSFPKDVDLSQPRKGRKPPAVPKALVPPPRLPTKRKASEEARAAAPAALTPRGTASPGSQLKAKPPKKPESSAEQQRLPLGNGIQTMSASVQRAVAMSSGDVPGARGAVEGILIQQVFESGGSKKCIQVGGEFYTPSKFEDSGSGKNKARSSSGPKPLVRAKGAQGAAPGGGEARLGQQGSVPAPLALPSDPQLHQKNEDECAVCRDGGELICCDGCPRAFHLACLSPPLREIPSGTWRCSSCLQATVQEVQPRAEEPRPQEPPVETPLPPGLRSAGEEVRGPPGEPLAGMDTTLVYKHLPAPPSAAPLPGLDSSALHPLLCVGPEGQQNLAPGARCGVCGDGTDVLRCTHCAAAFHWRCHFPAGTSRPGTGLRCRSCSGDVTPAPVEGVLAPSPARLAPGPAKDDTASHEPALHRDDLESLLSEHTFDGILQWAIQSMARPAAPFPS

- Variants of: B1
- Test: AIRE transcriptional activation functional score (insulin promoter-GFP; nonsense median 0, synonymous median 1) (normalised score); higher = higher AIRE activity (more reporter activation)
- Reported conditions: with insulin promoter-GFP reporter in HEK293
# answer = number (no unit)

Item under review: G379R . Reported AIRE transcriptional activation functional score?
0.719

Please give the result for A246G too.
0.693

Please give the result for W455H too.
0.823

Please give the result for I309A too.
0.827

Please give the result for F100Q too.
1.26

Please give the result for G54L too.
-0.0223

Please give the result for V199Q too.
0.755

Please give the result for R465M too.
0.403

Please give the result for Q69Y too.
0.498

Please give the result for S278M too.
1.35

Please give the result for L75F too.
0.688

Please give the result for S518K too.
1.27

Please give the result for L417I too.
0.855

Please give the result for A541I too.
1.3

Please give the result for L47V too.
0.302

Please give the result for L32C too.
-0.199

Please give the result for D502W too.
1.04

Please give the result for D478F too.
0.799

Please give the result for W335E too.
1.3

Please give the result for P125D too.
0.901

Please give the result for M388R too.
0.983

Please give the result for D238Q too.
0.948

Please give the result for M536G too.
0.186

Please give the result for R113Q too.
1.18

Please give the result for E347V too.
0.892

Please give the result for L283C too.
0.771

Please give the result for T130Y too.
1.11

Please give the result for D76I too.
0.22

Please give the result for L385A too.
0.341

Please give the result for E485L too.
1.11

Please give the result for A413W too.
1.15

Please give the result for P490D too.
0.28

Reference source: the supplement of paper PMC12667976
